Quick reference: inhibition at 1 µM of the listed items.
# target-entity: MNK1 (Homo sapiens (Human), UniProt Q9BUB5)
# Sequence (Q9BUB5 other isoform, or with tags, fused parts or gaps): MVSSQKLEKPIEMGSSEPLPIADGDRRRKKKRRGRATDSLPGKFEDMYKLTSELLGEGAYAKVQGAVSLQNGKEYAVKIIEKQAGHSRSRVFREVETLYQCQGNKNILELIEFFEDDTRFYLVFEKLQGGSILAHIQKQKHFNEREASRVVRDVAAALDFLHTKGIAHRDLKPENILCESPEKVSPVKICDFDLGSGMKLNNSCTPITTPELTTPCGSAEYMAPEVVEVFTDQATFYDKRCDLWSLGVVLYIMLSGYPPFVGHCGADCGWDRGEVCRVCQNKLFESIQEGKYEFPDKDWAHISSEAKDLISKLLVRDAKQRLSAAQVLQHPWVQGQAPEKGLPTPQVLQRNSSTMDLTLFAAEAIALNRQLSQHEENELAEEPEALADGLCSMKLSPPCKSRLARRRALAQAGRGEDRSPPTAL
# assay-comment: MNK1 in vitro kinase assay (Assay 3), Z'-LYTE
# Type: biochemical
# details: compound concentration of 1 μM, read-out: MNK1 % INH
readout: inhibition at 1 µM

• Cc1cc(N=S2(=O)CCCC2)cc2ncnc(Nc3ccc(F)cc3O[C@H](C)C(=O)NC(C)C)c12 = 97%
• Cc1cc([C@@H](C)Oc2cc(F)ccc2Nc2ncnc3cc(N=S4(=O)CCCC4)cc(C)c23)on1 = 102%
• Cc1cc(N=S(C)(C)=O)cc2ncnc(Nc3ccc(F)cc3O[C@H](C)C(=O)N3CCC(O)C3)c12 (stereo partly drawn) = 74%
• Cc1cc(N=S(C)(C)=O)cc2ncnc(Nc3ccc(F)cc3O[C@H](C)C(=O)NC3CCC3)c12 = 99%
• COC1CCN(C(=O)[C@@H](C)Oc2cc(F)ccc2Nc2ncnc3cc(N=S4(=O)CCCC4)cc(C)c23)CC1 = 90%
• Cc1cc(N=S(C)(C)=O)cc2ncnc(Nc3ccc(F)cc3OCC3CCO3)c12 (stereo not drawn) = 88%
• Cc1cc(N=S(C)(C)=O)cc2ncnc(Nc3ccc(F)cc3O[C@H](C)C(=O)N(C)CCc3ccccc3)c12 = 45%
• CS(C)(=O)=Nc1cc(C(F)(F)F)c2c(Nc3ccc(F)cc3OC(CF)CF)ncnc2c1 = 59%
• O=S1(=Nc2cc(C(F)(F)F)c3c(Nc4ccc(F)cc4OC(CF)CF)ncnc3c2)CCCC1 = 79%
• Cc1cc(N=S(C)(C)=O)cc2ncnc(Nc3ccc(F)cc3O[C@H](C)C(=O)N[C@H]3CCOC3)c12 = 99%
• Cc1cc(N=S(C)(C)=O)cc2ncnc(Nc3ccc(F)cc3OC(C)C(C)(C)C#N)c12 (stereo not drawn) = 76%
• Cc1cc(N=S2(=O)CCCC2)cc2ncnc(Nc3cccnc3OCC3CCOC3)c12 (stereo not drawn) = 96%
• Cc1cc(N=S(C)(C)=O)cc2ncnc(Nc3ccc(F)cc3O[C@H](C)C(=O)N(C)C(C)C)c12 = 82%
• Cc1cc(N=S(C)(C)=O)cc2ncnc(Nc3ccc(F)cc3O[C@H](C)C(=O)N(C)CCO)c12 = 70%
• CCOC(Oc1ncccc1Nc1ncnc2cc(N=S(C)(C)=O)cc(C)c12)C(F)(F)F (stereo not drawn) = 63%
• Cc1cc(N=S(C)(C)=O)cc2ncnc(Nc3ccc(F)cc3O[C@H](C)CNS(=O)(=O)C(F)(F)F)c12 = 27%
• Cc1cc(N=S(C)(C)=O)cc2ncnc(Nc3ccc(F)cc3OC(C)c3ncco3)c12 (stereo not drawn) = 80%
• C#CC(C)Oc1cc(F)ccc1Nc1ncnc2cc(N=S(C)(C)=O)cc(C)c12 (stereo not drawn) = 90%
• Cc1cc(N=S(C)(C)=O)cc2ncnc(Nc3ccc(F)cc3OC(C)c3nccs3)c12 (stereo not drawn) = 89%
• CCC(C)NC(=O)[C@@H](C)Oc1cc(F)ccc1Nc1ncnc2cc(N=S(C)(C)=O)cc(C)c12 (stereo partly drawn) = 98%
• Cc1cc(N=S2(=O)CCCC2)cc2ncnc(Nc3ccc(F)cc3O[C@H](C)C(=O)NC3CCC3)c12 = 102%
• COCC(=O)N1CCS(=O)(=Nc2cc(C)c3c(Nc4ccc(F)cc4O[C@H](C)c4cc(C)no4)ncnc3c2)CC1 = 97%
• Cc1cc(N=S(C)(C)=O)cc2ncnc(Nc3ccc(F)cc3O[C@H](C)CNC(=O)C(F)(F)F)c12 = 62%
• Cc1cc(N=S2(=O)CCCC2)cc2ncnc(Nc3ccc(F)cc3O[C@H](C)C(=O)N(C)Cc3ccccc3)c12 = 73%
• CCNC(=O)NC[C@@H](C)Oc1cc(F)ccc1Nc1ncnc2cc(N=S(C)(C)=O)cc(C)c12 = 78%
• CS(C)(=O)=Nc1cc(C2CC2)c2c(Nc3ccc(F)cc3OC(CF)CF)ncnc2c1 = 79%
• Cc1cc(N=S(C)(C)=O)cc2ncnc(Nc3ccc(F)cc3O[C@H](C)C(=O)NCC(C)O)c12 (stereo partly drawn) = 98%
• Cc1cc(N=S(C)(C)=O)cc2ncnc(Nc3ccc(F)cc3OCC3(C)COC3)c12 = 72%
• Cc1cc(N=S(C)(C)=O)cc2ncnc(Nc3ccc(F)cc3OC(C)C#N)c12 (stereo not drawn) = 93%
• CCS(C)(=O)=Nc1cc(Cl)c2c(Nc3cccnc3O[C@H](C)c3cc(C)no3)ncnc2c1 (stereo partly drawn) = 98%

Values compiled from patent US9139577B2.
